# Test system: 786-0 renal
# Test Name: NCI-60 one-dose screen, 48 h
# Details: 10 µM unless noted
About 83,000 compounds went through this panel and 20% of them were active in at least one assay; those are over-represented in the sample as a whole. Activity calls are given as the source filed them. How the source made its calls: active means growth percent below 10; inactive means the rest.
Parameter call: string, one of class 1 (active), class 0 (inactive)

Example entries begin here.
COc1ccc(NC(=O)N/N=C/c2c[nH]c3ccccc23)cc1 = class 0
COc1cc(/C=N/NC(=O)c2ccc(OCc3nc4ccc(Cl)cc4[nH]3)cc2)cc(OC)c1OC = class 0
COc1ccc2[nH]c(O)c(N=Nc3nc(-c4ccc(Cl)cc4)cs3)c2c1 = class 1

Now for a further molecule.
Query: In this assay, the call recorded for `COc1ccccc1/C=C/c1cccc(NC(=S)NCCCCN(C)C)c1` was what?
Response: class 1

====

# growth per record follows
# Test system: NCI-H23 lung
# Test Name: NCI-60 one-dose screen, 48 h (100 = growth as untreated, 0 = no growth, -100 = all killed)
# Details: 10 µM unless noted
The panel holds about 83,000 compounds, 20% with a hit somewhere; the sample as a whole holds those more often.
Give just the numeric value; % need not be written.

Some compounds with recorded growth:
Cc1ccc(C2CC(c3ccc(S(=O)(=O)NCCNc4nc(N(C)C)nc(N5CCOCC5)n4)cc3)=Nc3c(N)nc(N)nc3N2)cc1 (configuration not stated) = 72
CN1C(=O)C2(C(C#N)=C(c3ccc(Cl)cc3)Nc3c2c(-c2ccccc2)nn3-c2ccccc2)c2ccccc21 (configuration not stated) = 80

Query: // lookup growth for `COc1c(B(O)O)cc(F)cc1-c1nc2c(F)cc3[nH]ncc3c2c2c1CCCC2`
Response: 5.45

Query: `Cc1ccc2c(c1)nc(-c1ccccc1)n2CC(=O)N=Nc1c(O)[nH]c2ccc(Cl)cc12` , same question.
Response: -66

Query: `COc1ccc2nc(NC(=O)c3ccc(N(C)C)cc3)sc2c1` , same question.
Response: 66.2

Query: `COc1cc2cc(C(=O)N3C[C@@H](CCl)c4c3cc(OC(=O)N(C)CCSSCCN3CCOCC3)c3ccccc43)[nH]c2c(OC)c1OC` , same question.
Response: -66.9

Query: `COc1ccc(C(=O)NNC(=O)CSc2nc3sc4c(c3c(=O)n2-c2ccc(Cl)cc2)CCCC4)cc1` , same question.
Response: 63.2

Query: N#CC1=C(c2cccs2)Nc2c(c(-c3ccccc3)nn2-c2ccccc2)C12C(=O)Nc1ccccc12 (configuration not stated) , same question.
Response: 13.6

Query: `COc1ccc2[nH]c(O)c(N=Nc3nc(-c4ccc(Cl)cc4)cs3)c2c1` , same question.
Response: -33.7

Query: `COc1ccc(Nc2ncnc3sc4c(c23)CCN(Cc2ccccc2)C4)cc1` , same question.
Response: 91.8

Query: O=C1CC(c2ccc(I)cc2)OC2C=Cc3ccccc3C12 (configuration not stated) , same question.
Response: 98.2

Query: `CC(=O)c1ccc2c(N)c(C(=O)Nc3ccc(C(F)(F)F)cc3)sc2n1` , same question.
Response: 41.7

====

# Test system: NCI-H226 lung
# Test Name: NCI-60 one-dose screen, 48 h
# Details: 10 µM unless noted
The panel holds about 83,000 compounds, 20% with a hit somewhere; the sample as a whole holds those more often. The source made the active and inactive calls. The calls were made as follows: active = growth percent below 10; inactive = the rest.
Parameter call: string, one of 1 (yes) = active, 0 (no) = inactive

O=C(Nc1ccc(F)cc1)Nc1nc2ccc([N+](=O)[O-])cc2s1 = 1 (yes)

Query: In this assay, the call recorded for N#CC1=C(c2ccco2)Nc2c(c(-c3ccccc3)nn2-c2ccccc2)C12C(=O)Nc1ccc(Cl)cc12 (stereo not drawn) was what?
Response: 1 (yes)

Query: `N#CCc1nnc(NC(=O)c2ccc(-n3c(=O)[nH]c4ccccc4c3=O)cc2)s1` , same question.
Response: 0 (no)
